Task for the reader: assign each of the following substances its reported normalised inhibition (eCFP-eYFP dual reporter).
Biological target: SOST; note: test concentration or dose not given here
Test: reporter assay of Huesken 2005
Settings: siRNA
Oligonucleotides are given in HELM: sugar(base)linkage, 5' to 3'; d 2'-deoxyribose, r ribose, m 2'-O-methylribose, p phosphate. ss, as = sense and antisense strand
Numbers only, in %.

RNA1{r(C)p.r(G)p.r(C)p.r(G)p.r(A)p.r(G)p.r(C)p.r(U)p.r(G)p.r(C)p.r(A)p.r(C)p.r(U)p.r(U)p.r(C)p.r(A)p.r(C)p.r(C)p.r(C)p.d(T)p.d(T)}|RNA2{r(G)p.r(G)p.r(G)p.r(U)p.r(G)p.r(A)p.r(A)p.r(G)p.r(U)p.r(G)p.r(C)p.r(A)p.r(G)p.r(C)p.r(U)p.r(C)p.r(G)p.r(C)p.r(G)p.d(G)p.d(C)}$$$RNA1{StrandType:ss}|RNA2{StrandType:as}$
54.8
RNA1{r(A)p.r(G)p.r(C)p.r(U)p.r(C)p.r(A)p.r(A)p.r(G)p.r(G)p.r(A)p.r(C)p.r(U)p.r(U)p.r(C)p.r(G)p.r(G)p.r(G)p.r(A)p.r(C)p.d(T)p.d(T)}|RNA2{r(G)p.r(U)p.r(C)p.r(C)p.r(C)p.r(G)p.r(A)p.r(A)p.r(G)p.r(U)p.r(C)p.r(C)p.r(U)p.r(U)p.r(G)p.r(A)p.r(G)p.r(C)p.r(U)p.d(C)p.d(C)}$$$RNA1{StrandType:ss}|RNA2{StrandType:as}$
64.7
RNA1{r(C)p.r(C)p.r(G)p.r(A)p.r(U)p.r(G)p.r(G)p.r(G)p.r(C)p.r(C)p.r(G)p.r(U)p.r(G)p.r(C)p.r(C)p.r(G)p.r(C)p.r(A)p.r(G)p.d(T)p.d(T)}|RNA2{r(C)p.r(U)p.r(G)p.r(C)p.r(G)p.r(G)p.r(C)p.r(A)p.r(C)p.r(G)p.r(G)p.r(C)p.r(C)p.r(C)p.r(A)p.r(U)p.r(C)p.r(G)p.r(G)p.d(T)p.d(C)}$$$RNA1{StrandType:ss}|RNA2{StrandType:as}$
54.3
RNA1{r(G)p.r(U)p.r(A)p.r(G)p.r(U)p.r(G)p.r(G)p.r(A)p.r(G)p.r(G)p.r(G)p.r(C)p.r(C)p.r(A)p.r(G)p.r(G)p.r(G)p.r(G)p.r(U)p.d(T)p.d(T)}|RNA2{r(A)p.r(C)p.r(C)p.r(C)p.r(C)p.r(U)p.r(G)p.r(G)p.r(C)p.r(C)p.r(C)p.r(U)p.r(C)p.r(C)p.r(A)p.r(C)p.r(U)p.r(A)p.r(C)p.d(A)p.d(C)}$$$RNA1{StrandType:ss}|RNA2{StrandType:as}$
63.5

Here is the next item to consider.
Ask: Please supply the value of reported normalised inhibition (eCFP-eYFP dual reporter) for the item RNA1{r(G)p.r(U)p.r(G)p.r(U)p.r(C)p.r(C)p.r(C)p.r(G)p.r(G)p.r(U)p.r(G)p.r(G)p.r(U)p.r(G)p.r(A)p.r(G)p.r(G)p.r(C)p.r(G)p.d(T)p.d(T)}|RNA2{r(C)p.r(G)p.r(C)p.r(C)p.r(U)p.r(C)p.r(A)p.r(C)p.r(C)p.r(A)p.r(C)p.r(C)p.r(G)p.r(G)p.r(G)p.r(A)p.r(C)p.r(A)p.r(C)p.d(A)p.d(G)}$$$RNA1{StrandType:ss}|RNA2{StrandType:as}$
Reply: 62.9
